Entries and their measured residual activity follow.
assayedTarget: Tyrosine-protein kinase TXK (Homo sapiens) (UniProt P42681)
Sequence (whole entry): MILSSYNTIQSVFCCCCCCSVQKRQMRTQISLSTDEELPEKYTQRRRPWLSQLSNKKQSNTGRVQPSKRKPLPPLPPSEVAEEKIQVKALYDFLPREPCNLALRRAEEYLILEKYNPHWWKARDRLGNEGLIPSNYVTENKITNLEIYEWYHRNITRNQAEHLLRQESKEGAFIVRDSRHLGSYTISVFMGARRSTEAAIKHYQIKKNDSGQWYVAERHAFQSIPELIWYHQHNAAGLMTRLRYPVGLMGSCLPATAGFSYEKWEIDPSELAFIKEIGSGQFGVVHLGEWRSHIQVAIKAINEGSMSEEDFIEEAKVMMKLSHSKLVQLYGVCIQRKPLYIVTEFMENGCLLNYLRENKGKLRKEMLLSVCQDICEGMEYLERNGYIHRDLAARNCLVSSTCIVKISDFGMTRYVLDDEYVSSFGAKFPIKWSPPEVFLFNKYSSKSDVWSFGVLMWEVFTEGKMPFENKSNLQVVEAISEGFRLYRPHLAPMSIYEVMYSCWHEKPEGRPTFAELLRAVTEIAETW
experimentalContext: at 1 µM
Please reply with the bare figure in % and do not write the unit itself.

Requested read-out: residual activity. Entry: "Nc1ncnc2[nH]nc(Nc3ccc(F)cc3)c12" 66

One more molecule: "Nc1n[nH]c2nc3ccccc3nc12" 87

One more molecule: "COc1ccc(-c2cnc3c(-c4ccsc4)cnn3c2)cc1" 70

One more molecule: O=C(NC(NC(=S)Nc1ccc(F)c([N+](=O)[O-])c1)C(Cl)(Cl)Cl)C(c1ccccc1)c1ccccc1 (stereo unspecified) 82

One more molecule: "CCN(CC)CCNC(=O)c1c(C)[nH]c(/C=C2\C(=O)Nc3ccc(Cl)cc32)c1C" 70

One more molecule: "N#Cc1c(NC(=O)c2cccc3ccccc23)sc2c1CCCC2" 90

Measured values drawn from ChEMBL document CHEMBL2218924 for this set.
